Value source: ChEMBL document CHEMBL1123507

tested on: HeLa; assay: Cytotoxicity concentration in HeLa cells; type: cell-based; details: human
ASSAY READOUT: Toxicity (µM)

INSERT INTO assay_data (query_smiles, assay_readout, unit_string, comparison_symbol, measured_result) VALUES
  ('CS(=O)(=O)c1ccc(Oc2ccc(C(=O)c3ccccc3)cc2)cc1', 'Toxicity', 'µM', '>', 284),
  ('N#Cc1ccc(Oc2ccc(Cl)cc2)nc1', 'Toxicity', 'µM', '>', 433),
  ('N#Cc1cc([N+](=O)[O-])ccc1Oc1cccc(C(F)(F)F)c1', 'Toxicity', 'µM', '=', 41),
  ('CS(=O)(=O)c1ccc(Oc2ccc(Cl)c(Cl)c2)nc1', 'Toxicity', 'µM', '=', 157),
  ('CS(=O)(=O)c1ccc(Oc2ccc(C#N)cc2)cc1', 'Toxicity', 'µM', '=', 183),
  ('CS(=O)(=O)c1ccc(Oc2ccc(Cl)c(Cl)c2)c(C#N)c1', 'Toxicity', 'µM', '=', 292);

====

tested on: HeLa; test: Cytotoxicity concentration in HeLa cells; type: cell-based; settings: human
ASSAY READOUT: log10(Toxicity) (log10 of the value in µM)

INSERT INTO measurements (query_smiles, measured_result) VALUES
  ('CS(=O)(=O)c1ccc(Oc2ccc([N+](=O)[O-])cc2)cc1', 2.23),
  ('COc1ccccc1Oc1ccc([N+](=O)[O-])cc1C#N', 1.27),
  ('N#Cc1cc([N+](=O)[O-])ccc1Oc1ccccc1Cl', 1.65),
  ('CC(=O)c1ccc(Oc2ccc(C#N)cn2)cc1', 2.62),
  ('CSc1ccc(Oc2ccc(Cl)c(Cl)c2)nc1', 1.94),
  ('CS(=O)(=O)c1ccc(Oc2ccccc2Cl)cc1', 1.94),
  ('CS(=O)(=O)c1ccc(Oc2ccc(Br)cc2)cc1', 1.58),
  ('N#Cc1ccc(Oc2ccc(Cl)c(Cl)c2)cc1', 1.38),
  ('O=S(=O)(O)c1ccc(Oc2ccc(Cl)c(Cl)c2)nc1', 2.49),
  ('CC(=O)c1ccc(Oc2ccc(Cl)c(Cl)c2)cc1', 1.69),
  ('CS(=O)(=O)c1ccnc(Oc2ccc(Cl)c(Cl)c2)c1', 2.20);

====

tested on: Enterovirus; experiment: Lowest concentration to reduce viral effect by 50% or more against Rhinovirus (RV)-2; assay type: functional
ASSAY READOUT: MIC50

INSERT INTO measurements (query_smiles, assay_readout, measured_result) VALUES
  ('CS(=O)(=O)c1ccc(Oc2ccc(Cl)c(Cl)c2)c(N)c1', 'MIC50', '18.7 µM'),
  ('N#Cc1cc([N+](=O)[O-])ccc1Oc1ccc(C(=O)c2ccccc2)cc1', 'MIC50', '> 291 µM'),
  ('CS(=O)(=O)c1ccc(Oc2ccc(C#N)cc2)cc1', 'MIC50', '45.8 µM'),
  ('N#Cc1ccccc1Oc1ccc(Cl)c(Cl)c1', 'MIC50', '> 379 µM'),
  ('Clc1ccc(Oc2ccc(Br)cn2)cc1Cl', 'MIC50', '16 µM'),
  ('N#Cc1ccc(Oc2ccc(Cl)c(Cl)c2)c(C#N)c1', 'MIC50', '10.7 µM'),
  ('N#Cc1cccnc1Oc1ccc(Cl)c(Cl)c1', 'MIC50', '24 µM'),
  ('N#Cc1cc([N+](=O)[O-])ccc1Oc1cccc(Cl)c1Cl', 'MIC50', '0.26 µM');

====

system: HeLa; test: Cytotoxicity concentration in HeLa cells; format: cell-based; details: human
Response field class: enum, chosen by comparing Toxicity against 0 = under 40 µM, 1 = from 40 µM up to 400 µM, 2 = 400 µM and over

INSERT INTO measurements (molecule, class) VALUES
  ('N#Cc1ccc(Oc2ccc(Cl)c(Cl)c2)nc1', 1),
  ('O=[N+]([O-])c1ccc(Oc2ccc(Cl)c(Cl)c2)c([N+](=O)[O-])c1', 0),
  ('CC(=O)c1ccc(Oc2ccc(S(C)(=O)=O)cc2)cc1', 1),
  ('Clc1ccc(Oc2ccc(Cl)c(Cl)c2)cc1', 1),
  ('C[S+]([O-])c1ccc(Oc2ccc(Cl)c(Cl)c2)nc1 (stereo not given)', 1),
  ('Cc1ccc(Oc2ccc(C#N)cn2)cc1', 2),
  ('N#Cc1cc(N)ccc1Oc1ccc(Cl)c(Cl)c1', 0),
  ('N#Cc1ccccc1Oc1ccc(Cl)c(Cl)c1', 1),
  ('N#Cc1cc([N+](=O)[O-])ccc1Oc1ccc(C(F)(F)F)cc1', 1),
  ('N#Cc1cc([N+](=O)[O-])ccc1Oc1ccccc1C(F)(F)F', 0),
  ('N#Cc1ccc(Oc2ccccc2)nc1', 2),
  ('O=[N+]([O-])c1ccc(Oc2ccc(Cl)c(Cl)c2)cc1', 1),
  ('CS(=O)(=O)c1ccc(Oc2ccc(Cl)cc2)cc1', 1);

====

tested on: HeLa; experiment: Cytotoxicity concentration in HeLa cells; type: cell-based; conditions: human
Use 200 µM as the dividing line for Toxicity, with the line itself on the True side and lower values as False.

INSERT INTO results (query_smiles, class) VALUES
  ('CS(=O)(=O)c1cccc(Oc2ccc(Cl)c(Cl)c2)n1', 'False'),
  ('Clc1ccc(Oc2ccc(Br)cn2)cc1Cl', 'False'),
  ('N#Cc1cc(Oc2ccc(Cl)c(Cl)c2)ccc1[N+](=O)[O-]', 'False'),
  ('O=S(=O)(c1ccccc1)c1ccc(Oc2ccc(Cl)c(Cl)c2)cc1', 'False'),
  ('CS(=O)(=O)c1cccnc1Oc1ccc(Cl)c(Cl)c1', 'False'),
  ('N#Cc1cc([N+](=O)[O-])ccc1Oc1ccc(Cl)c(Cl)c1', 'True'),
  ('N#Cc1ccc(Oc2ccc(F)cc2)nc1', 'True'),
  ('CSc1ccc(Oc2ccc([N+](=O)[O-])cc2C#N)cc1', 'True'),
  ('Nc1ccc(Oc2ccc(Cl)c(Cl)c2)nc1', 'False');

====

system: HeLa; assay: Cytotoxicity concentration in HeLa cells; format: cell-based; conditions: human
Respond with yes (1) for Toxicity values of 200 µM and above, no (0) for values below.

INSERT INTO measurements (query_smiles, target_or_test_system, class) VALUES
  ('CS(=O)(=O)c1ccc(Oc2ccc(O)cc2)cc1', 'HeLa', 'no (0)'),
  ('O=C(O)c1cc([N+](=O)[O-])ccc1Oc1ccc(Cl)c(Cl)c1', 'HeLa', 'yes (1)'),
  ('COc1ccc(Oc2ccc([N+](=O)[O-])cc2C#N)cc1', 'HeLa', 'no (0)'),
  ('CS(=O)(=O)c1ccc(Oc2cccc(Cl)c2)cc1', 'HeLa', 'no (0)'),
  ('CC(=O)Nc1ccc(Oc2ccc(Cl)c(Cl)c2)c(C#N)c1', 'HeLa', 'no (0)'),
  ('CS(=O)(=O)c1ccc(Oc2ccc(Cl)c(Cl)c2)c(N)c1', 'HeLa', 'no (0)'),
  ('CS(=O)(=O)c1ccc(Oc2ccc(Cl)c(Cl)c2)cc1', 'HeLa', 'no (0)'),
  ('N#Cc1cccc(Oc2ccc(Cl)c(Cl)c2)n1', 'HeLa', 'yes (1)');

====

tested on: Coxsackievirus; experiment: Ratio of the MIC50 of 6-(4-Nitro-phenoxy)-nicotinonitrile compared to compound obtained in the same test for coxsackie A21; assay type: functional
ASSAY READOUT: Relative activity

INSERT INTO assay_data (query_smiles, measured_result) VALUES
  ('CC(=O)c1ccc(Oc2ccc(S(C)(=O)=O)cc2)cc1', 0.769),
  ('COc1cccc(Oc2ccc([N+](=O)[O-])cc2C#N)c1', 2.8),
  ('N#Cc1ccc(Oc2ccc(Cl)cc2)nc1', 0.48),
  ('N#Cc1cc([N+](=O)[O-])ccc1Oc1cccc2ccccc12', 1.2),
  ('N#Cc1cc([N+](=O)[O-])ccc1Oc1ccc(C(F)(F)F)cc1', 13),
  ('N#Cc1cc([N+](=O)[O-])ccc1Oc1cc(Cl)cc(Cl)c1', 0.8),
  ('CSc1ccc(Oc2ccc(Cl)c(Cl)c2)nc1', 4.6),
  ('N#Cc1ccc(Oc2ccc(Cl)c(Cl)c2)cc1', 11.3),
  ('CS(=O)(=O)c1ccc(Oc2ccccc2Cl)cc1', 1.2),
  ('N#Cc1cc([N+](=O)[O-])ccc1Oc1ccccc1', 0.96),
  ('N#Cc1cc([N+](=O)[O-])ccc1Oc1ccc(Cl)cc1Cl', 13.3),
  ('N#Cc1cccnc1Oc1ccc(Cl)c(Cl)c1', 1.1);

====

// values below are reported log10(MIC50)
tested on: Enterovirus; assay: Lowest concentration to reduce viral effect by 50% or more against Rhinovirus (RV)-2; assay type: functional
ASSAY READOUT: log10(MIC50) (log10 of the value in µM)

INSERT INTO measurements (query_smiles, assay_readout, measured_result) VALUES
  ('CS(=O)(=O)c1ccc(Oc2cccc(Cl)c2)cc1', 'log10(MIC50)', 1.34),
  ('N#Cc1cc([N+](=O)[O-])ccc1Oc1ccc(C(F)(F)F)cc1', 'log10(MIC50)', 0.00),
  ('CS(=O)(=O)c1cccc(Oc2ccc(Cl)c(Cl)c2)n1', 'log10(MIC50)', 1.59),
  ('N#Cc1cc([N+](=O)[O-])ccc1Oc1cccc(C(F)(F)F)c1', 'log10(MIC50)', 0.30),
  ('CS(=O)(=O)c1ccnc(Oc2ccc(Cl)c(Cl)c2)c1', 'log10(MIC50)', 1.90),
  ('N#Cc1cc([N+](=O)[O-])ccc1Oc1ccc(Br)cc1', 'log10(MIC50)', 0.58),
  ('N#Cc1ccc(Oc2ccc([N+](=O)[O-])cc2C#N)cc1', 'log10(MIC50)', 0.97),
  ('N#Cc1cc(N)ccc1Oc1ccc(Cl)c(Cl)c1', 'log10(MIC50)', 0.95),
  ('CSc1ccc(Oc2ccc([N+](=O)[O-])cc2C#N)cc1', 'log10(MIC50)', 1.34),
  ('COc1ccc(Oc2ccc([N+](=O)[O-])cc2C#N)cc1', 'log10(MIC50)', 1.06),
  ('Cc1ccc(Oc2ccc(S(C)(=O)=O)cc2)cc1', 'log10(MIC50)', 1.40);
